Entries and their inhibition values follow.
assay: blockers of Ca2+-induced mitochondrial swelling – biochemical, isolated mouse mitochondria, absorbance, primary screen (AID 602449); conditions: 30 min, at 10 µM, active compounds read high;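 note: 0% = DMSO wells given calcium and 100% = 1 mM EGTA wells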
Screen size: about 360,000 compounds; about 5,000 (1.4%) were called active. Only a selection was taken, and actives are over-represented in it overall.

Here is how some compounds turned out for inhibition.
1) O=C(COC(=O)c1cnccn1)Nc1ccc(Cl)cc1C(F)(F)F: -0.1% (inactive)
2) CN(c1cccc(NC(=O)Nc2ccc(Cl)cc2)c1)S(C)(=O)=O: 92.2% (active)
3) C/C(=N\Nc1ccc(S(N)(=O)=O)cc1[N+](=O)[O-])c1cccs1: 2.3% (inactive)
4) COc1ccccc1NC(=O)C1=C(C)Nc2nc3ccccc3n2C1c1cccs1 (configuration not stated): 0.9% (inactive)
5) O=S(=O)(O)c1cc2onnc2c2ccccc12: 0.1% (inactive)
6) COc1cccc(NC(=O)CN(C)C(=O)CSCc2nc3scc(-c4cccs4)c3c(=O)[nH]2)c1: -0.9% (inactive)
7) CC1Sc2ccc(C(=O)NCc3ccccc3Cl)cc2NC1=O (configuration not stated): -1% (inactive)
8) Cc1ccc2nnn(Cc3cccc(C(C)(C)C)c3O)c2c1: 93.7% (active)

Challenge: Note down inhibition recorded for "COc1ccc(NS(=O)(=O)c2ccc(N3CCN(CCO)CC3)c([N+](=O)[O-])c2)cc1"
Response given: 2.1% (inactive)

Challenge: Note down inhibition recorded for CCCCCCCCCCCCN1C(=O)CSC1c1cccnc1 (configuration not stated)
Response given: 62.4% (active)

Challenge: Note down inhibition recorded for "Nc1[nH]c(C(=O)c2ccccc2)c(-c2ccc(Br)cc2)c1C(=O)NC1CC1"
Response given: 0.8% (inactive)

Challenge: Note down inhibition recorded for "CCc1ccc(C(=O)NNC(=O)C2CCN(c3ncnc4sc(C)c(C)c34)CC2)cc1"
Response given: -0.3% (inactive)
